// z-score lookup, one value per entry
method_description: S. cerevisiae growth modulation with rapamycin, primary screen, strain BY4716, OD600, 96 h (AID 1091); also: test concentration not given here
run_conditions: higher = more signal, called active from +8 up or from −8 down
I'd appreciate a reply containing only the number, no unit.

# annotated cases, reported z-score shown
>  <compound>
CCCC[C@@H](O)C1=C(C)C[C@H]2C(=O)N(Cc3ccccc3)C(=O)[C@H]2[C@H]1CO

>  <z-score>
0.0211

$$$$
>  <compound>
COCCNC(=O)OCC1CCCC2(CC(OC(=O)NCCc3ccc(F)cc3)CC(CCC(=O)N[C@@H](C)C(=O)OC)O2)O1 (some centres undefined)

>  <z-score>
0.647

$$$$

Report z-score for CC(C)(C)OC(=O)CC[C@]1(C(N)=O)COC(c2ccc(OCCCO)cc2)=N1 please. 0.0262

Report z-score for [N-]=[N+]=Nc1ccccc1C[C@@]1(C(N)=O)N=C(c2ccc(OCCCO)cc2)O[C@@H]1c1ccccc1 please. -0.481

Data origin: PubChem BioAssay
